Target: UniProtKB P21453
Sequence (P21453 whole entry): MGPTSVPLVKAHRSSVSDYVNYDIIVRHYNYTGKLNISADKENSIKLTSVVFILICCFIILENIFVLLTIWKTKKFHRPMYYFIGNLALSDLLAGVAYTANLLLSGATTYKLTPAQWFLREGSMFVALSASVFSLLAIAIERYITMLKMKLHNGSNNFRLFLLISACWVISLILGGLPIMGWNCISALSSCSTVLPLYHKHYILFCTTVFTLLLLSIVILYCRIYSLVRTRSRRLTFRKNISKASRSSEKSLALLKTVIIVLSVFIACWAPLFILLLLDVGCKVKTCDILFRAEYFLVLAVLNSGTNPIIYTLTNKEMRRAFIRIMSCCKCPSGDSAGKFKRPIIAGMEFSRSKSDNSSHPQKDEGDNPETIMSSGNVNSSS
Assay: b-arrestin recruitment assay
Details: b-arrestin recruitment, hS1PR1; EC50 [95% confidence interval] (n)
assay-readout: EC50 (nM)
Answer in nM, number only, no unit symbol.

CCCCCCCCCCCCC/C=C/[C@@H](O)[C@@H](N)COP(=O)(O)O [Compound S1P, sphingosine-1-phosphate] :: 18.3

The reported value for CC(C)Cc1ccc(-c2nc(-c3ccc(CN4CC(C(=O)O)C4)c(F)c3)no2)cc1 [Compound 1] in terms of EC50 is 6.2

---

Target: UniProt Q9H228
Sequence (Q9H228 whole entry): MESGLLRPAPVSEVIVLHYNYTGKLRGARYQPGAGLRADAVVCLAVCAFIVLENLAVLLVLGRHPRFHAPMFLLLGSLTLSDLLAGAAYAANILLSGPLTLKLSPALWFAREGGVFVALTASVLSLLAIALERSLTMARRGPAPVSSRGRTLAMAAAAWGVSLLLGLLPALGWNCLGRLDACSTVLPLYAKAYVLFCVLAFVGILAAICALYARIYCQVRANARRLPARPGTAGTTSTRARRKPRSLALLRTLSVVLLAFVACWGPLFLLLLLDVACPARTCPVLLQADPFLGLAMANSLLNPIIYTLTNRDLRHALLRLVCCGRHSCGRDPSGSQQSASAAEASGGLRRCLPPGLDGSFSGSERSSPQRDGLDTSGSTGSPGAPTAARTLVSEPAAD
Experiment: b-arrestin recruitment assay
Settings: b-arrestin recruitment, hS1PR5; EC50 [95% confidence interval] (n)
assay-readout: EC50 (nM)
Answer in nM, number only, no unit symbol.

CC(C)Oc1ccc(-c2nc(-c3cccc4c3CC[C@@H]4NCCO)no2)cc1C#N :: 7.3

The reported value for CC(C)Cc1ccc(-c2nc(-c3ccc(CN4CC(C(=O)O)C4)c(F)c3)no2)cc1 in terms of EC50 is 0.71

---

Biological target: S1P2 Receptor (Homo sapiens)
Sequence (O95136 whole entry): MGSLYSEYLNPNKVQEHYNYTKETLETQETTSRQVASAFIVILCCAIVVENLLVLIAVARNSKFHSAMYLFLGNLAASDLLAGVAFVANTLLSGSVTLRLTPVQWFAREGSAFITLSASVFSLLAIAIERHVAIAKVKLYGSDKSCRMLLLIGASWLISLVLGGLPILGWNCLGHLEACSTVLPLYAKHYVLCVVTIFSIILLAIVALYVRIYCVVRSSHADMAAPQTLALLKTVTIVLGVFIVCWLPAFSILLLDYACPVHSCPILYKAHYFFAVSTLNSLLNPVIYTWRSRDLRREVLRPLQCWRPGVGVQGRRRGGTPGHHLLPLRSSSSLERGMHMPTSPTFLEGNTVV
Test: S1P2 receptor internalization
Settings: N 5
assay-readout: pEC50
Please report pEC50 as the negative decimal logarithm of the molar concentration, giving only the number.

Sample CC(C)Cc1ccc(-c2nc(-c3ccc(CN4CC(C(=O)O)C4)c(F)c3)no2)cc1 , system: S1P2 Receptor (Homo sapiens). Its pEC50 is 5.60
